Source of measurements: patent US12091425B2

Target or system: Mcl-1/Bim interaction, recombinant human Mcl-1 (171-327) (Homo sapiens)
Construct: made in house
Sequence (Q07820 171-327): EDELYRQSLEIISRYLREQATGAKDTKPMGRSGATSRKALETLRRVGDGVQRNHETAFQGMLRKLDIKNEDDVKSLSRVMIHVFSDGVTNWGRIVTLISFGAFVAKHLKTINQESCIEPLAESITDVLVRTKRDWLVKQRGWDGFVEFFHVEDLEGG
Assay procedure: Cell free Mcl-1: Bim Affinity Assay (Mcl-1 HTRF)
Assay type: binding
Run parameters: TR-FRET, 0.1 nM Mcl-1 (171-327), 0.05 nM biotin-Bim (51-76)
Method: Cell free Mcl-1: Bim Affinity Assay (Mcl-1 HTRF) The inhibition of the Mcl-1/Bim interaction was measured using a time-resolved fluorescence resonance energy transfer (TR-FRET) assay. […] A biotinylated peptide derived from human Bim (residues 51-76) was purchased from CPC Scientific (San Jose, CA). […] The reaction plates were further incubated overnight and then were read on an Envision® multimode reader (PerkinElmer). […]
Measured quantity: IC50 (nM)
Kindly answer with a numeric value in nM, unit omitted.

Record excerpt, results attached:
CCN1C(C)C/C=C\[C@H](O)[C@@H]2CC[C@H]2CN2C[C@@]3(CCCc4cc(Cl)ccc43)COc3ccc(cc32)C(=O)NS1(=O)=O (single isomer, unassigned); 0.994
CN(C)S(=O)(=O)CCO[C@@H]1/C=C/CCCS(=O)(=O)NC(=O)c2ccc3c(c2)N(C[C@@H]2CC[C@H]21)C[C@@]1(CCCc2cc(Cl)ccc21)CO3; 2.4
CC[C@@H]1CC/C=C/[C@H](OCc2ccccn2)[C@@H]2CC[C@H]2CN2C[C@@]3(CCCc4cc(Cl)ccc43)COc3ccc(cc32)C(=O)NS1(=O)=O; 10.4

IN: Fill blank: measured IC50 of the compound "CO[C@H]1/C=C/[C@H](C)C[C@@H](C)S(=O)(=O)NC(=O)c2ccc3c(c2)N(C[C@@H]2CC[C@H]21)C[C@@]1(CCCc2cc(Cl)ccc21)CO3" is ____.
OUT: 0.483

IN: Entry under review: CC1CCCS(=O)(=O)NC(=O)c2ccc3c(c2)N(CC2CCC2C(O)C1)CC1(CCCc2cc(Cl)ccc21)CO3 (single isomer, unassigned) . Reported IC50?
OUT: 2.54

IN: What IC50 value was documented for this compound, "CNC(=O)C[C@@H]1/C=C/[C@@H]2CC[C@H]2CN2C[C@@]3(CCCc4cc(Cl)ccc43)COc3ccc(cc32)C(=O)NS(=O)(=O)[C@H](C)[C@@H](C)C1" ?
OUT: 0.617

IN: Query (compound): C[C@@H]1/C=C/[C@@H](O)[C@@H]2CC[C@H]2CN2C[C@@]3(CCCc4cc(Cl)ccc43)COc3ccc(cc32)C(=O)NS(=O)(=O)C[C@@H]1C (single isomer, unassigned) ; field requested: IC50
OUT: 7.88
